Hello, the source for this data is PubChem BioAssay (NCI), in case you need it.

Reported TGI values for the following molecules.
test system: OVCAR-4 ovarian; assay: NCI tumour cell line growth inhibition, 48 h
VALUE KIND: TGI

[[record]]
molecule = "CC(=O)CCCCC(=O)Nc1ccc(CC(NC(=O)OC(C)(C)C)C(=O)NCC(=O)OCc2ccccc2)cc1 (stereo unspecified)"
assay_system = "OVCAR-4 ovarian"
value_kind = "TGI"
readout_value = "27.6 µM"

[[record]]
molecule = "Cc1ccc(C(=O)c2nnc(C(=O)c3ccc(C)cc3)nn2)cc1"
assay_system = "OVCAR-4 ovarian"
value_kind = "TGI"
readout_value = "> 100 µM"

[[record]]
molecule = "[N-]=[N+]=Nc1c(C=O)c(=O)n2c3c(cccc13)CCC2"
assay_system = "OVCAR-4 ovarian"
value_kind = "TGI"
readout_value = "8.49 µM"

[[record]]
molecule = "COc1cc(OC)c2c(c1)C(=O)C(CC(C)O)=CC2=O (stereo unspecified)"
assay_system = "OVCAR-4 ovarian"
value_kind = "TGI"
readout_value = "31.9 µM"

[[record]]
molecule = "N#C/C(=C\\c1ccc(O)c(O)c1)C(N)=S"
assay_system = "OVCAR-4 ovarian"
value_kind = "TGI"
readout_value = "> 100 µM"

[[record]]
molecule = "CC1(C)C(=NNC(=O)C[N+](C)(C)C)C(C)(C)C1=NNC(=O)C[N+](C)(C)C"
assay_system = "OVCAR-4 ovarian"
value_kind = "TGI"
readout_value = "> 100 µM"

[[record]]
molecule = "O=C1c2c(ccc3c2CCCC3)CC12Cc1ccc3c(c1C2=O)CCCC3"
assay_system = "OVCAR-4 ovarian"
value_kind = "TGI"
readout_value = "> 100 µM"

[[record]]
molecule = "O=C(c1cccc2ccccc12)C1(Br)S(=O)(=O)OCCOS1(=O)=O"
assay_system = "OVCAR-4 ovarian"
value_kind = "TGI"
readout_value = "> 100 µM"

[[record]]
molecule = "NC1C[C@H](n2cc(/C=C/Br)c(=O)[nH]c2=O)C[C@@H]1CO (stereo partly specified)"
assay_system = "OVCAR-4 ovarian"
value_kind = "TGI"
readout_value = "> 100 µM"

[[record]]
molecule = "Cc1nc(N)nc(N)c1-c1ccc(Cl)c(Cl)c1"
assay_system = "OVCAR-4 ovarian"
value_kind = "TGI"
readout_value = "> 100 µM"

[[record]]
molecule = "C[C@]12CC[C@@H]3c4ccc(OP(=O)(O)O)cc4CC[C@H]3[C@@H]1CCC2=O"
assay_system = "OVCAR-4 ovarian"
value_kind = "TGI"
readout_value = "> 100 µM"

[[record]]
molecule = "COC(O)C(=O)c1c2c(cc3c1CC1(Cc4cc5c(cc4C1)CCC5)C3)CCC2 (stereo unspecified)"
assay_system = "OVCAR-4 ovarian"
value_kind = "TGI"
readout_value = "33.9 µM"

[[record]]
molecule = "O=[N+]([O-])c1ccc(-c2nnc(C34CC5CC(CC(C5)C3)C4)o2)cc1"
assay_system = "OVCAR-4 ovarian"
value_kind = "TGI"
readout_value = "> 100 µM"

[[record]]
molecule = "Cc1[nH]ccc2c1[nH]c1cc(=O)ccc12"
assay_system = "OVCAR-4 ovarian"
value_kind = "TGI"
readout_value = "> 100 µM"

[[record]]
molecule = "CC1=C(C(=O)O)N2C(=O)[C@@H](NC(=O)C(c3ccc(O)cc3)N3CSC(=S)N(C(C)C)C3)C2SC1 (stereo partly specified)"
assay_system = "OVCAR-4 ovarian"
value_kind = "TGI"
readout_value = "> 100 µM"

[[record]]
molecule = "O=C(CSc1nnc(-c2ccc(N=Cc3ccc(Cl)cc3)cc2)o1)Nc1ccc(Cl)cc1Cl"
assay_system = "OVCAR-4 ovarian"
value_kind = "TGI"
readout_value = "88 µM"

[[record]]
molecule = "CCc1ccccc1NC(=O)C(=O)CC(=O)c1sc(Nc2ccccc2)nc1C"
assay_system = "OVCAR-4 ovarian"
value_kind = "TGI"
readout_value = "> 100 µM"

[[record]]
molecule = "Cn1cnc(CCc2ccccc2)n1"
assay_system = "OVCAR-4 ovarian"
value_kind = "TGI"
readout_value = "> 100 µM"

[[record]]
molecule = "O=C(Cc1ccccc1)NNc1nc(NNC(=O)c2ccncc2)nc(Nc2ccc([N+](=O)[O-])cc2)n1"
assay_system = "OVCAR-4 ovarian"
value_kind = "TGI"
readout_value = "> 10 µM"

[[record]]
molecule = "NC(=O)c1cc2cc(Cl)cc(Cl)c2oc1=Nc1ccc(F)cc1"
assay_system = "OVCAR-4 ovarian"
value_kind = "TGI"
readout_value = "70.6 µM"

[[record]]
molecule = "N=c1c2c(C(N)=O)cn(C3OC(CO)C(O)C3O)c2ncn1O (stereo unspecified)"
assay_system = "OVCAR-4 ovarian"
value_kind = "TGI"
readout_value = "6.81 µM"

